Target: human TLR7 (Homo sapiens (Human), UniProt Q9NYK1)
Sequence (Q9NYK1 27-1049): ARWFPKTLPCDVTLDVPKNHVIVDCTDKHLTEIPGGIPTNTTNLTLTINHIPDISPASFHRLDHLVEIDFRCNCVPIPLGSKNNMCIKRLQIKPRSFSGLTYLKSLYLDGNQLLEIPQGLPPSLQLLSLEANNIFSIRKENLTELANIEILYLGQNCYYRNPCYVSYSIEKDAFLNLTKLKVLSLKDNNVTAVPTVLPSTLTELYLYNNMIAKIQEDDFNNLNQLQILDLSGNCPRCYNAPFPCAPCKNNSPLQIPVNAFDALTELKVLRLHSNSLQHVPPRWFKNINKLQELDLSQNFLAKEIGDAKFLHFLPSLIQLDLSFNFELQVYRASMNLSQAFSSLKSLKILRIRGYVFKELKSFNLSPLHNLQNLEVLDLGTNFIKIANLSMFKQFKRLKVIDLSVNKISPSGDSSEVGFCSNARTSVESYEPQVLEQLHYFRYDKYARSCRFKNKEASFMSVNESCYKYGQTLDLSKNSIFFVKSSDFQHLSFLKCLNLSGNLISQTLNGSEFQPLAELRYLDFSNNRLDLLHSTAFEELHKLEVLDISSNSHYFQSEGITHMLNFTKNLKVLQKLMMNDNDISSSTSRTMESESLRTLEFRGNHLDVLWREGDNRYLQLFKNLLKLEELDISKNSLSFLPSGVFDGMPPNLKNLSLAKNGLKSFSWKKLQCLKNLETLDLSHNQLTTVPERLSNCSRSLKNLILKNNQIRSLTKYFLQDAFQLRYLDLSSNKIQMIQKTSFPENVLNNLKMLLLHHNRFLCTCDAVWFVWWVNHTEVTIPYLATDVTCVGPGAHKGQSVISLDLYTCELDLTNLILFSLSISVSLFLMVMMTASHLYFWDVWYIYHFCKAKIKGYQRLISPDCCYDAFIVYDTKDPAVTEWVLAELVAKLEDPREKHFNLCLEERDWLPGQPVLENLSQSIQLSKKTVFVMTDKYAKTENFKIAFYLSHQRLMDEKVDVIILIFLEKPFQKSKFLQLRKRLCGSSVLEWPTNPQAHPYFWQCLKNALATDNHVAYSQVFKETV
Assay: Agonistic activity on human TLR7 in HEK-Blue hTLR7 stably transfected cells
Format: cell-based
measured-attribute: Emax (%)

COCCOc1nc(N)c2cnn(Cc3ccc(CN4CCCC4)cc3)c2n1 ... 95
COCC(C)Oc1nc(N)c2cnn(Cc3ccc(CN4CCCC4)cc3)c2n1 (centres unmarked) ... 104
CCCCOc1nc(N)c2cnn(Cc3ccc(CN4CCC4)cc3)c2n1 ... 91
CCCCOc1nc(N)c2cnn(Cc3ccc(CN4CCCC4)c(F)c3)c2n1 ... 96
CCCCOc1nc(N)c2cnn(Cc3cccc(CN4CCCC4)c3)c2n1 ... 88
